Each entry below carries its recorded pIC50.
target: NLRP3 (Homo sapiens); assay: Human whole blood IL1β release assay; format: cell-based; parameters: Plate out 80 μl of whole blood containing 1 μg/ml of LPS; from tissue; host or cells: human whole blood from healthy donors, LPS-primed, nigericin-stimulated; conditions: 1 μg/ml LPS, nigericin 10 μM, IL-1β by AlphaLisa, read-out: HWB IC50
pIC50: −log10 of the molar value.

Recorded results for 3 molecules are shown here.
1. CNC(=O)c1cc(S(=O)(=O)NC(=O)Nc2c(C(C)C)cc(F)cc2C(C)C)nn1C :: > 6.40
2. COCCN(C)C(=O)c1cc(S(=O)(=O)NC(=O)Nc2c3c(cc4c2CCC4)CCC3)nn1C :: 6.10 to 6.40
3. Cn1nc(S(=O)(=O)NC(=O)Nc2c3c(cc4c2CCC4)CCC3)cc1C(=O)N1CCC1 :: 5.49 to 5.80

Data point: CN(C)C(=O)c1cc(S(=O)(=O)NC(=O)Nc2c3c(cc4c2CCC4)CCC3)nn1C ; pIC50 = > 6.40

Data point: CNC(=O)c1cc(S(=O)(=O)NC(=O)Nc2c(C(C)C)cc(Cl)cc2C(C)C)nn1C ; pIC50 = 5.49 to 5.80

Data point: CN(C(=O)c1cc(S(=O)(=O)NC(=O)Nc2c3c(cc4c2CCC4)CCC3)nn1C)C1CC1 ; pIC50 = 6.10 to 6.40

Data point: CCN(C)C(=O)c1cc(S(=O)(=O)NC(=O)Nc2c(C(C)C)cccc2C(C)C)nn1C ; pIC50 = 5.49 to 5.80

Data point: CCN(C)C(=O)c1cc(S(=O)(=O)NC(=O)Nc2c(C(C)C)cc(F)cc2C(C)C)nn1C ; pIC50 = 6.10 to 6.40

====

molecular target: NLRP3 (Homo sapiens); experiment: Human whole blood IL1β release assay; format: cell-based; set-up: Plate out 80 μl of whole blood containing 1 μg/ml of LPS; from tissue; host or cells: human whole blood from healthy donors, LPS-primed, nigericin-stimulated; conditions: 1 μg/ml LPS, nigericin 10 μM, IL-1β by AlphaLisa, read-out: HWB IC50
pIC50: −log10 of the molar value.
value-type: pIC50

Recorded results for 5 compounds are shown here.
1. CNC(=O)Cn1ccc(S(=O)(=O)NC(=O)Nc2c3c(cc4c2CCC4)CCC3)n1 :: 5.49 to 5.80
2. COc1cc(-c2ccc3c(c2NC(=O)NS(=O)(=O)c2ccn(C(C)(C)C(=O)N(C)C)n2)CCC3)ccn1 :: > 6.40
3. CC(C)c1cc(Cl)cc(C(C)C)c1NC(=O)NS(=O)(=O)c1cc(C(=O)N(C)C)n(C)n1 :: 5.49 to 5.80
4. CC(C)c1cc(Cl)cc(C(C)C)c1NC(=O)NS(=O)(=O)c1cc(C(=O)N(C)CCO)n(C)n1 :: 5.80 to 6.10
5. COCCN(CCOC)C(=O)c1cc(S(=O)(=O)NC(=O)Nc2c(-c3ccnc(OC(C)C)c3)cc(F)cc2C(C)C)nn1C :: 5.00 to 5.49

Data point: CC(C)c1cccc(C(C)C)c1NC(=O)NS(=O)(=O)c1cc(C(=O)N(C)C)n(C)n1 ; pIC50 = > 6.40

Data point: Cn1nc(S(=O)(=O)NC(=O)Nc2c3c(cc4c2CCC4)CCC3)cc1C(=O)N(CCO)CCO ; pIC50 = > 6.40

====

Experiment: PK protocol: pharmacokinetic parameters in male Sprague Dawley rats
Assay type: in vivo
Settings: plasma, oral administration, rat, dose per compound in Dose column (3 or 5 mg/kg)
Protocol: Pharmacokinetic parameters were determined in male Sprague Dawley rats (Charles River, UK, 250-350 g; or Vital River Laboratory Animal Technology Co Ltd, Beijing, China, 7-9 weeks old). Animals were individually housed during the study and maintained under a 12 h light/dark cycle. Animals had free access to food and water except that some orally dosed animals were food deprived overnight prior to the study. […]
value-type: half-life (h)

a = CC(C)c1cc(F)cc(C(C)C)c1NC(=O)NS(=O)(=O)c1cc(C(=O)N(C)C)n(C)n1
b = COCCN(C)C(=O)c1cc(S(=O)(=O)NC(=O)Nc2c3c(cc4c2CCC4)CCC3)nn1C
c = CN(C)C(=O)c1cc(S(=O)(=O)NC(=O)Nc2c3c(cc4c2CCC4)CCC3)nn1C
Task field, ranking: reported half-life, descending order. A complete answer lists every label in the requested sequence.
a, b, c
(a: 9.7 h, b: 4.9 h, c: 3.4 h)

====

experiment: PK protocol: pharmacokinetic parameters in male Sprague Dawley rats; type: in vivo; details: plasma, intravenous administration, rat, dose per compound in Dose column (0.83-5.05 mg/kg)
value-type: AUC (ng·h/mL)

Recorded results for 5 molecules are shown here.
1) CC(C)c1cc(F)cc(C(C)C)c1NC(=O)NS(=O)(=O)c1cc(C(=O)N2CCC2)n(C)n1 :: 415
2) CCN(C)C(=O)c1cc(S(=O)(=O)NC(=O)Nc2c3c(cc4c2CCC4)CCC3)nn1C :: 1720
3) CC(C)c1cc(Cl)cc(C(C)C)c1NC(=O)NS(=O)(=O)c1cc(C(=O)N(C)C)n(C)n1 :: 353
4) CC(C)n1nc(S(=O)(=O)NC(=O)Nc2c3c(cc4c2CCC4)CCC3)cc1C(=O)N1CCC1 :: 303
5) CC(C)c1cc(F)cc(C(C)C)c1NC(=O)NS(=O)(=O)c1cc(C(=O)N(C)C)n(C)n1 :: 283

a = CN(C)C(=O)c1cc(S(=O)(=O)NC(=O)Nc2c3c(cc4c2CCC4)CCC3)nn1C
b = CC(C)c1cccc(C(C)C)c1NC(=O)NS(=O)(=O)c1cc(C(=O)N(C)C)n(C)n1
Would you let me know which has the greater AUC value, a or b ? # answer = label of selected item
a
(a: 3390 ng·h/mL, b: 334 ng·h/mL)

====

test: PK protocol: pharmacokinetic parameters in male Sprague Dawley rats; format: in vivo; conditions: plasma, intravenous administration, rat, dose per compound in Dose column (0.83-5.05 mg/kg)
value-type: half-life (h)

Recorded results for 5 compounds are shown here.
1. CC(C)n1nc(S(=O)(=O)NC(=O)Nc2c3c(cc4c2CCC4)CCC3)cc1C(=O)N1CCC1 :: 1.6
2. CC(C)c1cccc(C(C)C)c1NC(=O)NS(=O)(=O)c1cc(C(=O)N(C)C)n(C)n1 :: 0.5
3. CCN(C)C(=O)c1cc(S(=O)(=O)NC(=O)Nc2c3c(cc4c2CCC4)CCC3)nn1C :: 0.1
4. CC(C)c1cc(Cl)cc(C(C)C)c1NC(=O)NS(=O)(=O)c1cc(C(=O)N(C)C)n(C)n1 :: 1.3
5. CC(C)c1cc(F)cc(C(C)C)c1NC(=O)NS(=O)(=O)c1cc(C(=O)N(C)C)n(C)n1 :: 3.3

1 = CC(C)c1cc(F)cc(C(C)C)c1NC(=O)NS(=O)(=O)c1cc(C(=O)N2CCC2)n(C)n1
2 = CN(C)C(=O)c1cc(S(=O)(=O)NC(=O)Nc2c3c(cc4c2CCC4)CCC3)nn1C
Would you let me know which has the greater half-life value, 1 or 2 ? # answer = label of selected item
2
(2: 25.3 h, 1: 6.4 h)

====

assay: PK protocol: pharmacokinetic parameters in male Sprague Dawley rats; format: in vivo; settings: plasma, intravenous administration, rat, dose per compound in Dose column (0.83-5.05 mg/kg), read-out: Vdss
value-type: Vd (L/kg)

Recorded results for 5 compounds are shown here.
1. CCN(C)C(=O)c1cc(S(=O)(=O)NC(=O)Nc2c3c(cc4c2CCC4)CCC3)nn1C :: 0.24
2. CN(C)C(=O)c1cc(S(=O)(=O)NC(=O)Nc2c3c(cc4c2CCC4)CCC3)nn1C :: 17.8
3. CC(C)c1cc(F)cc(C(C)C)c1NC(=O)NS(=O)(=O)c1cc(C(=O)N(C)C)n(C)n1 :: 4.08
4. CC(C)c1cccc(C(C)C)c1NC(=O)NS(=O)(=O)c1cc(C(=O)N(C)C)n(C)n1 :: 0.99
5. CC(C)c1cc(F)cc(C(C)C)c1NC(=O)NS(=O)(=O)c1cc(C(=O)N2CCC2)n(C)n1 :: 7.96

A = CC(C)c1cc(Cl)cc(C(C)C)c1NC(=O)NS(=O)(=O)c1cc(C(=O)N(C)C)n(C)n1
B = CC(C)n1nc(S(=O)(=O)NC(=O)Nc2c3c(cc4c2CCC4)CCC3)cc1C(=O)N1CCC1
Would you let me know which has the greater Vd value, A or B ? # answer = label of selected item
A
(A: 10.6 L/kg, B: 1.66 L/kg)

====

Each entry below carries its recorded IC50.
biological target: NLRP3 (Homo sapiens, UniProt Q96P20); assay: THP-1 cells pyroptosis assay; assay type: cell-based; parameters: Seed THP-1 cells (25,000 cells/well) containing 1.0 μg/ml LPS; host or cells: THP-1 cells, LPS-primed, nigericin-stimulated; settings: 1.0 μg/ml LPS, nigericin 5 μM, resazurin readout
Sequence (Q96P20 whole entry): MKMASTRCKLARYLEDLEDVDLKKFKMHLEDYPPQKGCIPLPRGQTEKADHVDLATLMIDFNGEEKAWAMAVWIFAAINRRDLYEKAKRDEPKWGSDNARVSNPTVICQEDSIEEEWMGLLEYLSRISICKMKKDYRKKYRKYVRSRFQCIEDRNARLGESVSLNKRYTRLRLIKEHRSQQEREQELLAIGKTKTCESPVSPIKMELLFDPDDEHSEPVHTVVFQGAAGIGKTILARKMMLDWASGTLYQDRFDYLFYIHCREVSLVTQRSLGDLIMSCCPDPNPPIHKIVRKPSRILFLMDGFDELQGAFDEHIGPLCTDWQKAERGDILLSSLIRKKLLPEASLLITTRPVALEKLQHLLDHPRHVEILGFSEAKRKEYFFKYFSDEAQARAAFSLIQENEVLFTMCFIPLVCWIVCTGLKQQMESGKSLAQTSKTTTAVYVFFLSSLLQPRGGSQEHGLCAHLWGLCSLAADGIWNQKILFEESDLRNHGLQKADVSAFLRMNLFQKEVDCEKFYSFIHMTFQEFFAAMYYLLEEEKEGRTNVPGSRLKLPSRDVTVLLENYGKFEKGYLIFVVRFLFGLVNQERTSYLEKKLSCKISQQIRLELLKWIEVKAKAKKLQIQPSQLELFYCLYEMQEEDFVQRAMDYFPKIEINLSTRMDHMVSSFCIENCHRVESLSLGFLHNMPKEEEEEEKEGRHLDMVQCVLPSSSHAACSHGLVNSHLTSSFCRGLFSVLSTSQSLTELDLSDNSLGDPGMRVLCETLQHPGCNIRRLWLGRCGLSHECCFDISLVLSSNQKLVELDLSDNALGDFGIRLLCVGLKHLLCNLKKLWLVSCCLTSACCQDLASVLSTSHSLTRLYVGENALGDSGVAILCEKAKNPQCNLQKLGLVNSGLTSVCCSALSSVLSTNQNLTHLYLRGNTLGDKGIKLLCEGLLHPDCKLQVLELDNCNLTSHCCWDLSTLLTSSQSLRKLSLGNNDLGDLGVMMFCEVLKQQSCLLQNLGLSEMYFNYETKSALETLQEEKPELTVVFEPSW

1) CC(C)NC(=O)c1cc(S(=O)(=O)NC(=O)Nc2c3c(cc4c2CCC4)CCC3)nn1C :: 2560 to 10000 nM
2) CN(C)CCN(C)C(=O)c1cc(S(=O)(=O)NC(=O)Nc2c3c(cc4c2CCC4)CCC3)nn1C :: 640 to 2560 nM
3) CC(C)c1cccc(C(C)C)c1NC(=O)NS(=O)(=O)c1cc(C(=O)N(C)C2CC2)n(C)n1 :: 40 to 160 nM

Data point: CC(C)c1cccc(C(C)C)c1NC(=O)NS(=O)(=O)c1cc(C(=O)N2CCC2)n(C)n1 ; IC50 = 160 to 640 nM

Data point: CN(C)CCCN(C)C(=O)c1cc(S(=O)(=O)NC(=O)Nc2c3c(cc4c2CCC4)CCC3)nn1C ; IC50 = 2560 to 10000 nM

Data point: CNC(=O)c1cc(S(=O)(=O)NC(=O)Nc2c(C(C)C)cccc2C(C)C)nn1C ; IC50 = 160 to 640 nM
